B1: POU domain, class 3, transcription factor 3, residues 408 to 463; numbered along this chain, P20264 (parent)
chain: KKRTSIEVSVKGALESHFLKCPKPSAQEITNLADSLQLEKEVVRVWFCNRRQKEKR

# Variants of: B1
# MEASUREMENT DESCRIPTION: abundance fitness (aPCA) (normalised: wild type 0, dead -1); higher = more abundant; growth selection in yeast, the domain comes from the species named
# RUN PARAMETERS: Homo sapiens
Assign rule met to entries whose abundance fitness meets or exceeds -0.3; assign rule not met to the rest.

Recorded results for 5 variants are shown here.
T4R = rule met
S9K = rule met
Q52H = rule met
F18V = rule not met
R3P = rule met

Asked: Textbook exercise: given the entry `V42Q` , state whether its abundance fitness is greater than or equal to -0.3.
Given back: rule met

Asked: Quick one: `E28C`
Given back: rule not met

Asked: Quick one: `V43D`
Given back: rule not met

This collection of values is drawn from the Human Domainome abundance scans (Beltran et al. 2025).
